TARGET UNDER TEST: T1, LRRC15-hFc (Sino Biologicals, 15786-H02H) (UniProt Q8TF66 22-538)
T1 construct: also called LRRC15-Fc
T1 sequence (looked up): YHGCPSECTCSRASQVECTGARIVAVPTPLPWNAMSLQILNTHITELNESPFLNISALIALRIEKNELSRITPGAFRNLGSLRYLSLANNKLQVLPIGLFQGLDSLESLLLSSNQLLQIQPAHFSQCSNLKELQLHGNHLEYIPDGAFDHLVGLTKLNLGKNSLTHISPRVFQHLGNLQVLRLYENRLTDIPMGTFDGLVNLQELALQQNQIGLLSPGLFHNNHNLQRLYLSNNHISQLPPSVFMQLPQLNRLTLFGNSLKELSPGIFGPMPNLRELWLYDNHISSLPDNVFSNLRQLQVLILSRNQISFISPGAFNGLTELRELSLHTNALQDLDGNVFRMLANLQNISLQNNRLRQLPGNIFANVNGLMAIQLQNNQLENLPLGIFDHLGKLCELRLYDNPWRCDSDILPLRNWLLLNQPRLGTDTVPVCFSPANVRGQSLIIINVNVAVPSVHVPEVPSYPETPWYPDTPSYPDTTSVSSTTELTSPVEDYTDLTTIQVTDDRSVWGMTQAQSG
PROTOCOL NOTES: ELISA (Example 33): cell-free expressed scFv on LRRC15; x axis Log (concentration, nM)
OBSERVATION TYPE: binding result

1) i47_A11 (scFv) scFv: MSTSTQVQLVQSGAEVKKPGSSVKVSCKASGYTFTSYDINWVRQAPGQGLEWMGTINPSDGDTTYAQKFQGRVTITADESTSTAYMELSSLRSEDTAVYYCARVGGWGIYYYYGMDVWGQGTLVTVSSASGGGGSGGGGSGGGGSHASDIQMTQSPSSLSASVGDRVTITCRASQSINSWLAWYQQKPGKAPKLLIYAASSLQSGVPSRFSGSGSGTDFTLTISSLQPEDFATYYCQQTYTVPFSFGQGTKLEIKRAAAGSGSEQKLISEEDLGKPIPNPLLGLDST	binds
2) A03 (scFv) scFv: MSTSTQVQLVQSGAEVKKPGASVKVSCKASGYTFTGYYMHWVRQAPGQGLEWMGWMDPNNDDADYAQRFQGRVTMTRDTSTSTVYMELSSLRSEDTAVYYCASLAAAGPYYYYGMDVWGQGTLVTVSSASGGGGSGGGGSGGGGSHASDIQMTQSPSSLSASVGDRVTITCRASQSINNYLNWYQQKPGKAPKLLIYGASNLETGVPSRFSGSGSGTDFTLTISSLQPEDFATYYCQQSYGTPLTFGGGTKVEIKRAAAGSGSEQKLISEEDLGKPIPNPLLGLDST	binds
3) i47_A12 (scFv) scFv: MSTSTQVQLVQSGAEVKKPGSSVKVSCKASGYTFINNDINWVRQAPGQGLEWMGGTIPIFGVHIYAQKFQGRVTITADESTSTAYMELSSLRSEDTAVYYCVSSVGAGAYYYYGMDVWGQGTLVTVSSASGGGGSGGGGSGGGGSHASDIQMTQSPSSLSASVGDRVTITCQASQDISNYLNWYQQKPGKAPKLLIYAASSLQSGVPSRFSGSGSGTDFTLTISSLQPEDFATYYCQQSYSLPYTFGQGTRLEIKRAAAGSGSEQKLISEEDLGKPIPNPLLGLDST	binds
